Experiment: qHTS for Antagonists of gsp, the Etiologic Mutation Responsible for Fibrous Dysplasia/McCune-Albright Syndrome: qHTS; also: nearly all actives have a fitted effect of over 65% in size; also: potency is read from the fitted curve at half-maximal effect
Conditions: gsp-mutant cells, cAMP HTRF, 30 min; series mostly up to 76.9 µM
Screen size: about 340,000 compounds; about 1,400 (0.41%) were called active. Roughly 4% stayed inconclusive and do not appear here. Many of the other results were omitted from the sample, so actives are more common in it than they were.

>  <Smiles text>
CC(=O)N1CCCc2cc(S(=O)(=O)CCC(=O)N3CCN(c4ccccc4)CC3)ccc21

>  <Potency>
inactive

$$$$
>  <Smiles text>
Cc1nc(Nc2ccccc2C)c2cnn(C)c2n1

>  <Potency>
inactive

$$$$
>  <Smiles text>
COC(C[C@@H](O)C[C@H](O)[C@H](C)OCc1ccccc1)OC

>  <Potency>
50.1 µM (active)

$$$$
>  <Smiles text>
Cc1sc2ncnc(N3CCC(C(=O)Nc4ccc(F)cc4Cl)CC3)c2c1C

>  <Potency>
39.8 µM (active)

$$$$
>  <Smiles text>
CCc1ccc(NC(=O)Nc2ccncc2)cc1

>  <Potency>
inactive

$$$$

Cited source: PubChem BioAssay AID624288
